- Test system: VDR homodimer (NR concentration 270 nM)
- ASSAY: PBM binding z-score (relative to random genomic background probes); higher = stronger binding; sequences stand for … in GC…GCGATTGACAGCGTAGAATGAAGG
QUANTITY_NAME: PBM binding z-score
One number for each entry.

RESIDUE_CODES: ATATGTAGGTTACATCCGGGTCATCCAGGCTATG
PBM binding z-score: 2.44

RESIDUE_CODES: TAGCCTAGTTCATTCAGGGGCCAGTATAGAAAGC
PBM binding z-score: 2.71

Please state PBM binding z-score for every sequence in the list that follows.
1. TCTAGTTGGTCACGGAGGGCACACACGACGGGTA
2. CCTTACGGGTCACTGACAGGTTATAGCGTTTGGA
3. ATATGTAGGTTATCGGGTCATACAGTTTGCGCAT
4. TCTTGTAGGTCAATAGAGGTTAAGAAAGTGCGCT
5. CCTCGGAGGTCAACAGGAGGTCAGAGCTGCCAGA
6. CCTAGTTGGTCAAGGTCACATACGCTATAGGTAC
7. CCTACTGGGCCACGAAAGGCCATTGATTCAGTGA
8. CAAAATAGGTCAAAGGTCAAAGTCGAGCCAACCA

1. 0.915
2. 1.2
3. 3.52
4. 1.63
5. 3.37
6. 3.56
7. -0.271
8. 2.93

Please state PBM binding z-score for every sequence in the list that follows.
1. ACTTACGGGTCTACGAGGTTATAGCACGCGTATA
2. AGAATGAGGTCATACGTAGATCAGGGAAGAAAGT
3. TACCCTAGGTCATTGGGCCAGTATAGTACGCATC
4. ACGCGGAGGACAAAGGTCAGAGCTACGCCAGTGA
5. CGTCAAAGTTCAACTGAGGTAACGTAAAGCACGC

1. 1.55
2. 4.56
3. 1.77
4. 0.908
5. 4.07

Please state PBM binding z-score for every sequence in the list that follows.
1. AGTCAAACTTCAGGACGAGGTAACGTAAAGCACG
2. CCGAATAGGTTACGAGGGGGCATTCAGTGCGAAT
3. AGAACGAGGTCACGCTGAGTTGATAGCAGAGTAG
4. CCTACTGGGCCGTTCAGAGGTCATTGATCATATG
5. ATATGTAGGTTACCTGGGGTCATTCAGACTAGGC
6. CGTCCAAGGTCTAGGTCAGTGAAAGAGACTCGAA
7. CCGAGTAGGTTACGAGGGGTCATTCAGTGCGAAT

[-0.0917, 3.51, 5.15, 2.97, 5.34, 0.00097, 5.41]

Please state PBM binding z-score for every sequence in the list that follows.
1. ATCGAAAGGTCGACCAGGTGAGTATACACCGTTT
2. CAAACCAGGTCAAAGGTCAAAGTCGAGCCAACCA
3. TATACAGGGTCAAAGGTCAGAGTACGAATGTCGA
4. AGTCAAAGTTTATCTAGGTAACGTAAGATATGCT
5. TCTAGTGGGTCAAAGGTCACACACTCGAAATGCG
6. CCTTACGGGTCCCTCCAGGTTATAGCATCGGAGT
7. CGAACTAGGTCATTGACAGGACAGTGGATAGTAA
8. CGTACAAGGTCAAAGGTCAGTGAAGAGATGACGG

1. 1.22
2. 3.91
3. 4.33
4. 1.31
5. 2.84
6. 0.267
7. 1.22
8. 4.13

---

Can you tell me PBM binding z-score for the items I'm about to list?
- System: THRa homodimer (NR concentration 90 nM)
- ASSAY: PBM binding z-score (relative to random genomic background probes); higher = stronger binding; sequences stand for … in GC…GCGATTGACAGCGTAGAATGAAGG
Give bare numbers.

RESIDUE_CODES: GCTTAAGGGTCAAAGGTTATAGCATGAATAGAAT
TEST_TARGET: THRa homodimer (NR concentration 90 nM)
PBM binding z-score: -0.296
//
RESIDUE_CODES: CTCGAAAGGTCGTGCTCAGATGAGTATACCAAAC
TEST_TARGET: THRa homodimer (NR concentration 90 nM)
PBM binding z-score: -0.171
//
RESIDUE_CODES: TCTCGGAGGTCACGAAAGGTCAGAGCTCGACATC
TEST_TARGET: THRa homodimer (NR concentration 90 nM)
PBM binding z-score: 2.36
//
RESIDUE_CODES: ATATGTAGGTTATCTGGGGTCATTCAGACTAGGC
TEST_TARGET: THRa homodimer (NR concentration 90 nM)
PBM binding z-score: 3.91
//
RESIDUE_CODES: ATATGTAGGTTAAGCGTCATTCAGGTTGGTTCGC
TEST_TARGET: THRa homodimer (NR concentration 90 nM)
PBM binding z-score: 0.263

Please state PBM binding z-score for every sequence in the list that follows.
1. CCGAGTAGGTTACTAGGGGGCATTCAGTGCGAAT
2. CCTACTGGGCCATTCAGAGGTCAATGATCATATG
3. TCTCGGAGGACACCAAAGGTCAGAGCTCGACATC
4. CCTAGTTGTTCAGGAGGTCACACACCGGATATGA
5. GGAACGAGGTCAAAGTTGATAGCATCTGTCGACG
6. TAGCCTAGGTCATGCGGGCCAATATAGTGTCGGC

0.676
1.32
1.2
2.81
2.61
0.979

Please state PBM binding z-score for every sequence in the list that follows.
1. CCTACGGGGCCACGAAAGGTCATTGATTCAGTGA
2. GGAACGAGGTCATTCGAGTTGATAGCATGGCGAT
3. AATACAGGGTGACTAGGCCAGAGTAGGTACGAAT
4. CGTCCAAAGTCAAAGGTCAGTGAAGAGATGACGG
5. CGTCCAAGGTCAAGGTCAATGAAAGAGACTCGAA
6. CCTTACGGGTCACTCCAGGTTATATCATCGGAGT
7. CTACCAAGGTCAACAAGGTCGTTGATTACTATTC
8. CCTTAGGGGTCACTCCAGGTTATAGCATCGGAGT

1: 0.878; 2: 2.26; 3: 0.154; 4: 0.117; 5: 3.41; 6: 0.814; 7: 3.68; 8: 0.963

Please state PBM binding z-score for every sequence in the list that follows.
1. TACCCTAGGTCATTCAGGGGCCAGTATAGAAAGC
2. GCTGCTAGTTCAACTGATGGTCAGCTAAAGCTCG
3. TAGCCTAGGTCGTTCAGGGGCCAGTATAGAAAGC

[1.29, -0.498, -0.169]

---

- Test system: PPARg:RXRa 90nM:30nM, anti-RXR (NR concentration 90 nM, RXRa partner concentration 30 nM)
- ASSAY: PBM binding z-score (relative to random genomic background probes); higher = stronger binding; sequences stand for … in GC…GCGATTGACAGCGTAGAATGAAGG
Can you tell me PBM binding z-score for the items I'm about to list?
Answers are plain numbers.

Please state PBM binding z-score for every sequence in the list that follows.
1. TAGCCTAGGTCATTCAGGGGCAAGTATAGAAAGC
2. GGAACGAGGGCATTCGAGTTCATAGCATGGCGAT
3. ATATGTAGGTTAACTGGGGTCATTCAGACTAGGC
4. GCTTAGGGGTCAAAGGTTATAGCATGAATAGAAT
5. AGAATGGGGTTACCAAAGATCAGGGAAACGCTTG
6. ACTTACGGGTCAACGAGGTCATAGCACGCGTATA

1. 1.87
2. 0.725
3. 6.42
4. 10.2
5. 3.47
6. 5.73

---

- Tested on: PPARg:RXRa 270nM:90nM, anti-RXR (NR concentration 270 nM, RXRa partner concentration 90 nM)
- ASSAY: PBM binding z-score (relative to random genomic background probes); higher = stronger binding; sequences stand for … in GC…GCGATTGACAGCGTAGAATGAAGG
QUANTITY_NAME: PBM binding z-score
Numbers only.

As a guide, the following entries are already answered.
RESIDUE_CODES: ATCGAAAGGTCGTGAGGTAAGTATACAGAAAGGC
PBM binding z-score: 4.37

RESIDUE_CODES: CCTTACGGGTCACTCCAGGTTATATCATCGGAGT
PBM binding z-score: 3.72

Please state PBM binding z-score for every sequence in the list that follows.
1. ATCGAAAGGTCAACGAGGTGAGTATACACCGTTT
2. CAAACAAGGTCAAAGGTCAAAGTCGAGCCAACCA
3. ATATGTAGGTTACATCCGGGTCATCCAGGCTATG
4. TAGCCTAGGTCATGCGGGACAGTATAGTGTCGGC
5. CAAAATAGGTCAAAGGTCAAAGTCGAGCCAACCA

1: 7.87; 2: 11; 3: 5.21; 4: 2.57; 5: 11.5

Please state PBM binding z-score for every sequence in the list that follows.
1. AATACAGGGTCATCGTACGCCAGAGTACGCACAG
2. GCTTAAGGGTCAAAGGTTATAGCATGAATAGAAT

1: 6.25; 2: 9.09

Please state PBM binding z-score for every sequence in the list that follows.
1. CAAACAAGGTCACCGGAAGGTCAAAGTCCGCATG
2. CGTCTAAGGTCATAGGAGGTCAGTGAAGACAGAT
3. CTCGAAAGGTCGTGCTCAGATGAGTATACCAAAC
4. TGAATGAGGTTAAATATCAGGGAACGTGGCGTCG

7.81
6.7
3.42
3.17

Please state PBM binding z-score for every sequence in the list that follows.
1. AACGAAAGGTCGAAGGTGAGTATACCCACCCGAA
2. CAAACTAGTTCAAGAGGTCAAAGTCCGCTTCCCG
3. CCTTACGGGTAACGAGGTTATAGCACGACGAGCG

4.9
5.47
1.14
